Assay: Cy5 fluorescence quenching or enhancement artefacts, artefact control for HCV NS3 helicase inhibitor project, biochemical, LOPAC1280 (AID 687037)
Conditions: Cy5-DNA-NS3h complex fluorescence interference counterscreen
For each of the compounds below, state its fluorescence ratio (interference).
Lab note: write the figure by itself, no unit.

Please give the measured fluorescence ratio (interference) for this compound: CCCCCCCCCCCCCCCC(=O)NCCO
1

Could you do the same for CC[C@H](C)C(=O)O[C@H]1CCC=C2C=C[C@H](C)[C@H](CC[C@@H]3C[C@@H](O)CC(=O)O3)[C@H]21 , please?
0.9

Could you do the same for CC(=O)[C@@]1(O)CC[C@H]2[C@@H]3CCC4=CC(=O)CC[C@]4(C)[C@H]3CC[C@@]21C , please?
1

Could you do the same for CC[N+](CC)(CC)CCOc1ccc(/C=C/c2ccccc2)cc1 , please?
1

Could you do the same for C[N+](C)(C)CCO , please?
1

Could you do the same for O=C(O)c1cc2cc(Cc3cccnc3)ccc2o1 , please?
1

Could you do the same for CC1=C(C)C(=O)C(CCCCC#CCCCC#CCO)=C(C)C1=O , please?
1

Could you do the same for OC(CN1CCN(c2cccc(Cl)c2)CC1)C(c1ccccc1)c1ccccc1 (configuration not stated) , please?
0.9

Could you do the same for O=C(N[C@@H](Cc1ccccc1)C(=O)CCl)OCc1ccccc1 , please?
1

Could you do the same for CN(C)CCC(c1ccc(Br)cc1)c1ccccn1 (configuration not stated) , please?
0.9

Could you do the same for Oc1ccc(O)cc1 , please?
1.1

Could you do the same for Cc1ccc(=O)n(-c2ccccc2)c1 , please?
1

Could you do the same for C[N+](C)(C)CCOC(=O)CCC(=O)OCC[N+](C)(C)C , please?
1

Could you do the same for CN[C@H](CC(=O)O)C(=O)O , please?
1

Could you do the same for CCCn1cnc2c1c(=O)n(CCCCC(C)=O)c(=O)n2C , please?
1

Could you do the same for CN(C)CCN(Cc1cccs1)c1ccccn1 , please?
1

Could you do the same for COc1ccc2cc([C@H](C)C(=O)O)ccc2c1 , please?
1

Could you do the same for CCN1CCc2nc(N)oc2CC1 , please?
1

Could you do the same for O=C1OC(=O)C2C3CCC(O3)C12 (configuration not stated) , please?
1

Could you do the same for CC1=C(/C=C/C(C)=C/C=C/C(C)=C/C(=O)Nc2ccc(O)cc2)C(C)(C)CCC1 , please?
1

Could you do the same for O=C1Cc2cc(CCN3CCN(c4nsc5ccccc45)CC3)c(Cl)cc2N1 , please?
1

Could you do the same for NCCCC(N)(C(=O)O)C(F)F (configuration not stated) , please?
1

Could you do the same for NC(N)=NCCCCN=C(N)N , please?
1

Could you do the same for COC(=O)C1=C(C)NC(C)=C(C(=O)OC(C)(C)CN(C)CCC(c2ccccc2)c2ccccc2)C1c1cccc([N+](=O)[O-])c1 (configuration not stated) , please?
1

Could you do the same for CN/C(=C\[N+](=O)[O-])NCCSCc1ccc(CN(C)C)o1 , please?
0.9

Could you do the same for CC(C)Cn1c(=O)n(C)c(=O)c2[nH]cnc21 , please?
0.9

Could you do the same for CC(C)(C)NCC(O)c1ccc(O)c(CO)c1 (configuration not stated) , please?
1

This collection of values is drawn from PubChem BioAssay.
